Reference source: PubChem BioAssay (EPA / NIEHS)

Assay: ATG_E_Box_CIS: Attagene CIS-FACTORIAL HepG2 Assay for human Enhancer Box (E-box) (AID 2282936)
Conditions: HepG2 E-box cis-reporter transcription, actives raise or lower the signal
The source made the active and inactive calls. How the source made its calls: active means hit-call score of the fitted dose curve at least 0.9, where 1 is the maximum; inactive means score below 0.9.
Your response should consist of one outcome taken from active, inactive

{"compound": "O=C1NC(=O)c2ccccc21", "label class": "inactive"}
{"compound": "OC[C@H]1O[C@H](O[C@]2(CCl)O[C@H](CCl)[C@@H](O)[C@@H]2O)[C@H](O)[C@@H](O)[C@H]1Cl", "label class": "inactive"}
{"compound": "O=CCCc1ccccc1", "label class": "inactive"}

Consider the additional compound presented here.
**Q:** GET /call?item= CCC(C(=O)NC(N)=O)c1ccccc1 (configuration not stated) returns the recorded outcome of this test.
**A:** inactive

----------
Biological target: Nuclear respiratory factor 1 (Homo sapiens) (UniProt Q16656)
Sequence (Q16656 whole entry, looked up): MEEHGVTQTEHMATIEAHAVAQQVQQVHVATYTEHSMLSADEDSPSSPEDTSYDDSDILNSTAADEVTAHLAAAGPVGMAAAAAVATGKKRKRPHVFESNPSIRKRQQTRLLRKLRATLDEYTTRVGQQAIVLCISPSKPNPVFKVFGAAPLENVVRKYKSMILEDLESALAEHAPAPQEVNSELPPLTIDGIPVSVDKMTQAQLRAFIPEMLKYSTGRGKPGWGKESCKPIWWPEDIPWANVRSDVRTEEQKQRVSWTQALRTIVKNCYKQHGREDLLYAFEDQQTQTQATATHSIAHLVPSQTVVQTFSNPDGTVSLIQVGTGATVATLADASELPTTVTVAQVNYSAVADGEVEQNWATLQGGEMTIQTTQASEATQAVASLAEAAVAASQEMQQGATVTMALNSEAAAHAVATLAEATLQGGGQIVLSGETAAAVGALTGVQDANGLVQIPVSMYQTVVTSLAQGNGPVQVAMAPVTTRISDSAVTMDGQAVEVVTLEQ
Assay: ATG_NRF1_CIS: Attagene CIS-FACTORIAL HepG2 Assay for human Nuclear Respiratory Factor 1 (NRF1) Orphan Gene (AID 2282987)
Settings: HepG2 NRF1 cis-element reporter, Attagene multiplex; actives raise or lower the signal
Activity calls are given as the source filed them. The calls were made as follows: active = hit-call score of the fitted dose curve at least 0.9, where 1 is the maximum; inactive = score below 0.9.
Your response should consist of one outcome taken from true (1) for active, false (0) for inactive

For orientation, consider the following solved cases.
{"compound": "OC1C(O)C(O)C(O)C(O)C1O (stereo unspecified)", "target system": "Nuclear respiratory factor 1 (Homo sapiens) (UniProt Q16656)", "label class": "false (0)"}
{"compound": "Cc1cc(C2(c3cc(C)c(O)cc3C)OS(=O)(=O)c3ccccc32)c(C)cc1O", "target system": "Nuclear respiratory factor 1 (Homo sapiens) (UniProt Q16656)", "label class": "false (0)"}
{"compound": "c1cc(C(c2ccc(OCC3CO3)cc2)c2ccc(OCC3CO3)cc2)ccc1OCC1CO1 (stereo unspecified)", "target system": "Nuclear respiratory factor 1 (Homo sapiens) (UniProt Q16656)", "label class": "true (1)"}
{"compound": "Cc1ccc(C(=O)O)o1", "target system": "Nuclear respiratory factor 1 (Homo sapiens) (UniProt Q16656)", "label class": "false (0)"}
{"compound": "O=C(O)CCCCCCCC(=O)O", "target system": "Nuclear respiratory factor 1 (Homo sapiens) (UniProt Q16656)", "label class": "false (0)"}
{"compound": "C=COCCOCCOCCOC=C", "target system": "Nuclear respiratory factor 1 (Homo sapiens) (UniProt Q16656)", "label class": "false (0)"}

**Q:** GET /call?item= CCCCCCC#CC(=O)OC returns the recorded outcome of this test.
**A:** false (0)

**Q:** GET /call?item= CC(C)[C@H]1CC[C@@H](C)CC1=O returns the recorded outcome of this test.
**A:** false (0)

**Q:** GET /call?item= CCCC[n+]1ccccc1 returns the recorded outcome of this test.
**A:** false (0)

**Q:** GET /call?item= CCC(C)(O)CCC=C(C)C (stereo unspecified) returns the recorded outcome of this test.
**A:** false (0)

----------
Read-out: Monocyte Chemoattractant Protein-1 (MCP1), CCL2 (gene 6347)
Assay: BSK_3C_MCP1: BioMAP Diversity Plus: 3C Assay for Monocyte Chemoattractant Protein-1 (MCP1) Biomarker Activity (AID 2283017)
Details: primary human endothelial cells (HUVEC); actives raise or lower the signal
Active and inactive are the calls of the source. Rule for the calls: active = hit-call score of the fitted dose curve at least 0.9, where 1 is the maximum; inactive = score below 0.9.
Your response should consist of one outcome taken from 1 (yes) = active, 0 (no) = inactive

{"molecule": "COC(=O)c1ccc(C)cc1", "label class": "0 (no)"}
{"molecule": "CC1COc2ccccc2N1C(=O)C(Cl)Cl (stereo not drawn)", "label class": "0 (no)"}
{"molecule": "C[C@H]1C[C@@H]2[C@H]([C@@H](O)C[C@@]3(C)[C@H]2CC[C@]3(O)C(=O)CO)[C@@]2(C)C=CC(=O)C=C12", "label class": "0 (no)"}

**Q:** GET /call?item= Cc1ccc(Nc2ccc(O)c3c2C(=O)c2ccccc2C3=O)cc1 returns the recorded outcome of this test.
**A:** 0 (no)

**Q:** GET /call?item= C=C[Si](OCC)(OCC)OCC returns the recorded outcome of this test.
**A:** 0 (no)

**Q:** GET /call?item= CCn1c2ccccc2c2cc(N)ccc21 returns the recorded outcome of this test.
**A:** 1 (yes)

**Q:** GET /call?item= CC(=O)OCCC(C)CC(C)(C)C (stereo not drawn) returns the recorded outcome of this test.
**A:** 0 (no)

----------
Test: ATG_NF_kB_CIS: Attagene CIS-FACTORIAL HepG2 Assay for human Nuclear Factor Kappa B (NF-kB) (AID 2282991)
Details: HepG2 Attagene cis-factorial NF-kB reporter mRNA; actives raise or lower the signal
Description: ATG_CIS is a cell-based, multiplexed-readout assay that uses HepG2, a human liver cell line, with measurements taken at 24 hours after chemical dosing in a 24-well plate.ATG_NF_kB_CIS is one of 52 assay component(s) measured or calculated from the ATG_CIS assay. […] This assay endpoint, ATG_NF_kB_CIS, was analyzed with bidirectional fitting relative to DMSO as the negative control and baseline of activity. […]
Calls of active or inactive are those of the source. How the source made its calls: active means hit-call score of the fitted dose curve at least 0.9, where 1 is the maximum; inactive means score below 0.9.
Your response should consist of one outcome taken from active, inactive

For orientation, consider the following solved cases.
{"compound": "CCCCOCCOCCSC#N", "label class": "inactive"}
{"compound": "O=C(OCc1ccccc1)C(=O)OCc1ccccc1", "label class": "inactive"}
{"compound": "CCCC(=O)OCCC(C)CCC=C(C)C (centres undefined)", "label class": "active"}
{"compound": "NC(N)=NC(=O)c1nc(Cl)c(N)nc1N", "label class": "inactive"}
{"compound": "COCCCOc1ccnc(CS(=O)c2nc3ccccc3[nH]2)c1C (centres undefined)", "label class": "inactive"}

**Q:** GET /call?item= C=COCCOCCOCCOC=C returns the recorded outcome of this test.
**A:** inactive

**Q:** GET /call?item= O=C(O)CN(CCN(CC(=O)O)CC(=O)O)CCN(CC(=O)O)CC(=O)O returns the recorded outcome of this test.
**A:** inactive

**Q:** GET /call?item= COc1ccc(Nc2ccccc2)c(C)c1 returns the recorded outcome of this test.
**A:** active

----------
Experiment: ATG_GLI_CIS: Attagene CIS-FACTORIAL HepG2 Assay for human Zinc Finger Protein GLI1 (AID 2282945)
Details: HepG2, Attagene cis-factorial reporter mRNA, GLI element; actives raise or lower the signal
Activity calls are given as the source filed them. Rule for the calls: active = hit-call score of the fitted dose curve at least 0.9, where 1 is the maximum; inactive = score below 0.9.
Your response should consist of one outcome taken from active, inactive

For orientation, consider the following solved cases.
{"compound": "CCCC/C=C\\CCCCCCCCCC=O", "label class": "inactive"}
{"compound": "CC1(C)[C@H](C(=O)OCc2cccc(Oc3ccccc3)c2)[C@@H]1C=C(Cl)Cl", "label class": "inactive"}
{"compound": "CC1(C)CCC(C)(C)c2cc(C(=O)Nc3ccc(C(=O)O)cc3)ccc21", "label class": "inactive"}

**Q:** GET /call?item= CCC(O)CO (stereo not drawn) returns the recorded outcome of this test.
**A:** inactive

**Q:** GET /call?item= O=C=NC1CCC(CC2CCC(N=C=O)CC2)CC1 (stereo not drawn) returns the recorded outcome of this test.
**A:** active

**Q:** GET /call?item= NCCCN1CCOCC1 returns the recorded outcome of this test.
**A:** inactive

**Q:** GET /call?item= Cc1cccc(C)c1C returns the recorded outcome of this test.
**A:** inactive

**Q:** GET /call?item= C=C[C@@H](C)CCC=C(C)C returns the recorded outcome of this test.
**A:** inactive

**Q:** GET /call?item= c1ccc2c(c1)c1cccc3ccc4cccc2c4c31 returns the recorded outcome of this test.
**A:** inactive

----------
Read-out: Macrophage colony-stimulating factor (MCSF), CSF1 (gene 1435)
Assay: BSK_hDFCGF_MCSF: BioMAP Diversity Plus: hDFCGF Assay for Macrophage colony-stimulating factor (MCSF) Biomarker Activity (AID 2283060)
Conditions: primary human foreskin fibroblasts; actives raise or lower the signal
Procedure: BSK_hDFCGF is a cell-based, multiplexed-readout assay that uses foreskin fibroblast, a human skin primary cell, with measurements taken at 24 hours after chemical dosing in a 96-well plate.BSK_hDFCGF_MCSF is an assay component measured in the BSK_hDFCGF assay. It measures M-CSF antibody related to regulation of gene expression using ELISA technology.Data from the assay component BSK_hDFCGF_MCSF was analyzed into 1 assay endpoint. […]
Calls of active or inactive are those of the source. Rule for the calls: active = hit-call score of the fitted dose curve at least 0.9, where 1 is the maximum; inactive = score below 0.9.
Your response should consist of one outcome taken from class 1 (active), class 0 (inactive)

{"compound": "CC(=O)[C@H]1CC[C@H]2[C@@H]3CC=C4C[C@@H](O)CC[C@]4(C)[C@H]3CC[C@]12C", "label class": "class 0"}
{"compound": "C=C(C)C(=O)O[C@H]1C[C@@H]2CC[C@@]1(C)C2(C)C", "label class": "class 1"}
{"compound": "CCCCCCCCC=O", "label class": "class 0"}

**Q:** GET /call?item= O=C(O)c1cn(-c2ccc(F)cc2)c2cc(N3CCNCC3)c(F)cc2c1=O returns the recorded outcome of this test.
**A:** class 0

**Q:** GET /call?item= O=[N+]([O-])c1cc(C(F)(F)F)ccc1Cl returns the recorded outcome of this test.
**A:** class 0

**Q:** GET /call?item= OC1OC[C@@H](O)[C@H](O)[C@H]1O (stereo partly drawn) returns the recorded outcome of this test.
**A:** class 0

**Q:** GET /call?item= CC[Si](OC(C)=O)(OC(C)=O)OC(C)=O returns the recorded outcome of this test.
**A:** class 0

**Q:** GET /call?item= Nc1cc([N+](=O)[O-])ccc1Cl returns the recorded outcome of this test.
**A:** class 0

**Q:** GET /call?item= N#Cc1ccc(CC(=NNC(=O)Nc2ccc(OC(F)(F)F)cc2)c2cccc(C(F)(F)F)c2)cc1 returns the recorded outcome of this test.
**A:** class 0

**Q:** GET /call?item= Cc1ccc2n[nH]nc2c1 returns the recorded outcome of this test.
**A:** class 0

**Q:** GET /call?item= C=CCOC(=O)CCC1CCCCC1 returns the recorded outcome of this test.
**A:** class 0

**Q:** GET /call?item= O=C(O)c1ccc([N+](=O)[O-])cc1 returns the recorded outcome of this test.
**A:** class 0

**Q:** GET /call?item= CCn1c2ccccc2c2cc(N)ccc21 returns the recorded outcome of this test.
**A:** class 0
